Biological target: HLA-A*03:01
Experiment: IEDB peptide-MHC binding, purified MHC/competitive/fluorescence; filed as Kd, often an IC50 or EC50 that approximates it; bounds were set here for any values at or beyond the usual limits of such assays
Details: source organism: Burkholderia mallei SAVP1
pKd: −log10 of the molar value.
measured quantity: pKd

> print(dat)
    seq.text  measured.value
1  RFNAIWFNH          ≤ 4.70

Moving on to the next sequence.
# input Could you share what pKd was measured for "RLDARLQVL" , tested on HLA-A*03:01?
# output ≤ 4.70

* * *

Kd overview
Target: HLA-A*68:02
Assay: IEDB peptide-MHC binding, purified MHC/competitive/fluorescence; filed as Kd, often an IC50 or EC50 that approximates it; bounds were set here for any values at or beyond the usual limits of such assays
Conditions: source organism: Burkholderia mallei SAVP1

> print(dat)
    seq.text          tgt  measured.value
1  RFNAIWFNH  HLA-A*68:02         ≥ 20 µM

Would you kindly look at the next entry?
# input Given "RLDARLQVL" , state its recorded Kd.
# output ≥ 20 µM
